Values were extracted from ChEMBL document CHEMBL4610036.

- Tested Target: C-X-C chemokine receptor type 6 (Mus musculus)
- Sequence (Q9EQ16 whole entry): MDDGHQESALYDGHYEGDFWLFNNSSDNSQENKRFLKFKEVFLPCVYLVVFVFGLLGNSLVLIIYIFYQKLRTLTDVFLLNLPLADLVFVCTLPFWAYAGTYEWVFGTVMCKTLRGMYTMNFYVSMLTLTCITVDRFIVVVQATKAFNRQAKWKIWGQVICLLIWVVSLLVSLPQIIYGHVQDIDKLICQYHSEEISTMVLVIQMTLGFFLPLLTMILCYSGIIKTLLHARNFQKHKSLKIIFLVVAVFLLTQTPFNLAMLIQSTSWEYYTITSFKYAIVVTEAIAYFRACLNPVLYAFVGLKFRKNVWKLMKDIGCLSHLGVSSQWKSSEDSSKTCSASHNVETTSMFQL
Measured Property: pIC50
The scale used: pIC50 is minus the common logarithm of the concentration in molar units.

Lookup: Any idea what pIC50 was measured for COc1cc(C(=O)N[C@@H]2C[C@H]3CCC[C@@H](C2)N3CC(=O)Nc2ccccc2Cl)cc(OC)c1OC ?
Found: 4.74
